target: T1, rHuman Notch-1/Fc Chimera (human, UniProt P46531 19-526); test: ECL multispot (MSD) binding assay; antigen spotted on plate, Fab in solution;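 also: purified Fab bound for 1 h at 20 °C, detected with a TAG-labelled antibody, electrochemiluminescence compared with each well's blank, signal-to-blank ratio of at least 4 scored as hit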
T1 construct: Bought from R&D Systems (Cat#3647-TK)
readout_kind: ECL signal

binder	observed_result
Fab VH1-46_IGHD6-6*01_IGHJ1*01 S102A/S103P/S104F/H111F (APFF) & L6_IGKJ1*01 S92C (Fab, V domains shown, Tested as Fab made in E. coli: VH cloned into Plasmid A (CH1, His6 and Flag tags), kappa VL into Plasmid C (kappa CL); also called APFF / S92C) VH: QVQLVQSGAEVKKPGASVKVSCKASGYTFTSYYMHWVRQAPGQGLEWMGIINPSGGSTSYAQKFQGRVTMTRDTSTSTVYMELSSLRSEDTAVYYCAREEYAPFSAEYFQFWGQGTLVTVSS VL: EIVLTQSPATLSLSPGERATLSCRASQSVSSYLAWYQQKPGQAPRLLIYDASNRATGIPARFSGSGSGTDFTLTISSLEPEDFAVYYCQQRCNWPPWTFGQGTKVEIKR	642
Fab VH1-46_IGHD6-6*01_IGHJ1*01 S102A/S103P/S104F/H111F (APFF) & L6_IGKJ1*01 S92N (Fab, V domains shown, Tested as Fab (CH1 with His6/Flag tags from Plasmid A; kappa CL from Plasmid C); also called APFF / S92N) VH: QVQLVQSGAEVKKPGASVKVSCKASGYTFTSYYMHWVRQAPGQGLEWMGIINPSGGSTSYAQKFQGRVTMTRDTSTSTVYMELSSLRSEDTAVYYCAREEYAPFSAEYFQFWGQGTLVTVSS VL: EIVLTQSPATLSLSPGERATLSCRASQSVSSYLAWYQQKPGQAPRLLIYDASNRATGIPARFSGSGSGTDFTLTISSLEPEDFAVYYCQQRNNWPPWTFGQGTKVEIKR	407
Fab VH1-46_IGHD6-6*01_IGHJ1*01 S102A/S103P/S104F/H111F (APFF) & L6_IGKJ1*01 S92V (Fab, V domains shown, Tested as Fab (CH1 with His6/Flag tags from Plasmid A; kappa CL from Plasmid C); also called APFF / S92V) VH: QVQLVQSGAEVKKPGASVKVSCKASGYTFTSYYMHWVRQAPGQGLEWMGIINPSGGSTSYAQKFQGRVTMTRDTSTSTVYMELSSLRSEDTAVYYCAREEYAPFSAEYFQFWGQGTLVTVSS VL: EIVLTQSPATLSLSPGERATLSCRASQSVSSYLAWYQQKPGQAPRLLIYDASNRATGIPARFSGSGSGTDFTLTISSLEPEDFAVYYCQQRVNWPPWTFGQGTKVEIKR	347
Fab VH1-46_IGHD6-6*01_IGHJ1*01 S102A/S103P/S104F/H111F (APFF) & L6_IGKJ1*01 S92M (Fab, V domains shown, Tested as Fab (CH1 with His6/Flag tags from Plasmid A; kappa CL from Plasmid C); also called APFF / S92M) VH: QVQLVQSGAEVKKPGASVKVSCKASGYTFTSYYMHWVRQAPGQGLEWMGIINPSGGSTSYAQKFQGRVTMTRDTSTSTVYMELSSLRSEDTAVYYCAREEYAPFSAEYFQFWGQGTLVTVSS VL: EIVLTQSPATLSLSPGERATLSCRASQSVSSYLAWYQQKPGQAPRLLIYDASNRATGIPARFSGSGSGTDFTLTISSLEPEDFAVYYCQQRMNWPPWTFGQGTKVEIKR	385

Cited source: patent US20120316071A1
